From: paper PMC5540273

%Inh listing for selected molecules.
test system: TRKC; construct: gene NTRK3; settings: concentration: 1 μM, replicates: in singlicate; n = 1;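 note: KINOMEscan kinase panel screen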
Report the value in % with no unit label.

                                   molecule  observed_value
0  COC(=O)Nc1nc2ccc(Oc3ccc(CC(=O)Nc4cc(C(F)(F)F)ccc4F)cc3)cc2[nH]1 [GW680903]              49
1  O=C(Nc1n[nH]c2cc(-c3cccs3)ccc12)C1CC1 [SB-731284]               3
2  c1ccc(Oc2ccc(Nc3ccnc4cc(-c5ccc(CN6CCCCC6)o5)ccc34)cc2)nc1 [GW567143]              27
3  CN(c1ccc(F)c(NC(=O)c2cccc(OC(C)(C)C#N)c2Cl)c1)c1ccc2nc(NC(=O)C3CC3)sc2n1              11
4  CN(C)CCOc1ccc(-c2cc(-c3ccc(Cl)c(O)c3)c(-c3ccncc3)[nH]2)cc1.Cl.Cl [SB-684387]              36

The measured %Inh associated with O=C(O)C(F)(F)F.O=c1[nH]ccc2nc(N[C@@H]3CCNC3)nc(Nc3cc(Cl)cc(Cl)c3)c12 [GSK2188764] reads 62

The measured %Inh associated with Cc1ccc(NC(=O)c2ccc(Cl)c(Cl)c2)cc1-c1ccc(C(=O)Nc2ccncc2)cc1 [GSK1398460] reads 0

The measured %Inh associated with CCOc1nccc(-c2c(-c3ccc(F)cc3)ncn2C2CCNCC2)n1 [SB-249175] reads 18

----------
test system: LCK; details: concentration: 1 μM, replicates: in singlicate; n = 1
Quantity Name: %Inh (%)
Report the value in % with no unit label.

                              line_notation  observed_value
0          CNc1nccc(-c2ccc3c(N)n[nH]c3c2)n1              19
1  N#CC1(c2cccc(C(=O)Nc3cccc(Oc4ccc5nc(NC(=O)C6CC6)sc5n4)c3)c2)CC1            99.3

Would you kindly look at the next entry?
The measured %Inh associated with `COc1cccc(-c2nc(-c3ccccc3)[nH]c2-c2ccncc2)c1` reads 16

----------
%Inh listing for selected compounds.
test system: NIM1; construct: gene MGC42105; settings: concentration: 1 μM, replicates: in singlicate; n = 1
Report the value in % with no unit label.

The measured %Inh associated with `Cl.O=C(Nc1ccc(Oc2ccc3[nH]c(NC(=O)c4ccco4)nc3c2)cc1)Nc1cc(C(F)(F)F)ccc1F` reads 4

----------
test system: TBK1; details: concentration: 1 μM, replicates: in singlicate; n = 1
%Inh of 8% or higher: label 1. Under 8%: label 0.

Some solved entries appear below for comparison.
>>> print(df.to_string())
                                   molecule  class_name
0  Cc1ccc(-c2ccc3occ(-c4ccc(S(C)=O)cc4)c3c2)nn1 (stereo not drawn)     label 1
1  CN(c1ccc(NC(=O)N2CCN(CCCN3CCOCC3)CC2)cc1)c1ccnc(Nc2ccc(CS(C)(=O)=O)cc2)n1.Cl     label 1
2  CC(=O)Nc1cn2nc(Oc3cccc(NC(=O)c4cccc(C(F)(F)F)c4)c3)ccc2n1     label 1
3  O=C(O)C(F)(F)F.O=c1[nH]ccc2nc(N[C@@H]3CCNC3)nc(Nc3ccc4c(c3)S(=O)(=O)CC4)c12     label 1
4  Cc1ccccc1CC(=O)N1CCc2cc(-c3cn(C)c4ncnc(N)c34)ccc21     label 0
5  CC(C)(C)c1ccc(C(=O)Nc2cn3cc(-n4ccnc4)ccc3n2)cc1     label 1
6  COc1cccc(NC(=O)NCCNc2ccnc(Nc3ccc(F)cc3)n2)c1     label 1
7  Cc1ccc(NC(=O)c2ccnc(N3CCCCC3)c2)cc1-c1ccc(C(=O)NCC2CC2)cc1     label 0
8  Cc1nn2c(=O)cc(N3CCO[C@H](C)C3)nc2n1Cc1cccc(Cl)c1Cl     label 0
9  Fc1cc(Cl)ccc1Nc1ccnc2cc(-c3ccc(CN4CCSCC4)o3)ccc12     label 0

Is reported %Inh greater than or equal to 8% here: `Cc1ccc(Nc2ccnc(Nc3ccc(C)c(F)c3)n2)cc1O.Cl`
label 1

----------
%Inh listing for selected molecules.
system: p38-gamma; construct: gene MAPK12; conditions: concentration: 1 μM, replicates: in singlicate; n = 1

Solved entries:
In [3]: df
Out[3]:
                              line_notation  target_of_assay  quantity_name  observed_value
0  COC(=O)Nc1nc2cc(Oc3ccc(NC(=O)Nc4cccc(SC)c4)cc3)ccc2[nH]1.Cl        p38-gamma           %Inh              4%
1          CNc1nccc(-c2ccc3c(N)n[nH]c3c2)n1        p38-gamma           %Inh             25%
2  CN1CCN(Cc2ccc(NC(=O)Nc3ccc(N(C)c4ccnc(Nc5ccc(CS(C)(=O)=O)cc5)n4)cc3)cc2)CC1.Cl        p38-gamma           %Inh             48%
3  Cc1ccc(NC(=O)c2ccnc(N3CCCCC3)c2)cc1-c1ccc(C(=O)NCC2CC2)cc1        p38-gamma           %Inh             62%
4   O=C(Nc1n[nH]c2nc(-c3ccccc3O)ccc12)C1CC1        p38-gamma           %Inh             39%
5          Cc1cccc(Nc2nc(NCCN)ncc2C(N)=O)c1        p38-gamma           %Inh              0%

Would you kindly look at the next entry?
Short answer on p38-gamma for `COc1ccc(C)c(Nc2ccnc(Nc3ccc(-c4cnc[nH]4)cc3)n2)c1.Cl` , %Inh: 42%

----------
system: RIOK3; conditions: concentration: 1 μM, replicates: in singlicate; n = 1
%Inh listing for selected compounds.
Report the value in % with no unit label.

Solved entries:
                                   compound  target_of_assay  quantity_unit  observed_value
0  COc1ccc(NC(=O)c2ccoc2)cc1-c1ccc(C(=O)NCC2CC2)cc1            RIOK3              %               5
1  COc1cc(Nc2ccnc3cc(-c4ccncc4)ccc23)cc(OC)c1OC.Cl            RIOK3              %               0
2     Cc1ccc(O)cc1Nc1ccnc2ccc(C(C)(C)C)cc12            RIOK3              %              11
3  COC(=O)Nc1nc2ccc(Oc3ccc(CC(=O)Nc4cc(C(F)(F)F)ccc4F)cc3)cc2[nH]1            RIOK3              %               8
4  Cc1cccc(Nc2nc(N[C@H]3CCCC[C@H]3N)ncc2C(N)=O)c1.Cl            RIOK3              %              42

The measured %Inh associated with `O=C(Nc1n[nH]c2nc(-c3cccc(O)c3)ccc12)C1CC1` reads 59

The measured %Inh associated with `Cc1cc(-c2ccnc(Nc3cccc(C#N)c3)n2)cc(C)c1O` reads 97.9

The measured %Inh associated with `Cl.N#CCc1ccc(Nc2nccc(Nc3ccc(Oc4ccccc4)cc3)n2)cc1` reads 0

The measured %Inh associated with Cl.Cl.NCC(NC(=O)c1cc(-c2cccnc2)c(-c2ccnc3[nH]ccc23)s1)c1ccccc1 (centres unmarked) reads 57

The measured %Inh associated with `Cc1ccc(Nc2ccnc(Nc3ccc(C)c(F)c3)n2)cc1O.Cl` reads 4

The measured %Inh associated with Cc1ccc(-c2ccc3occ(-c4ccc(S(C)=O)cc4)c3c2)nn1 (centres unmarked) reads 0

----------
tested on: DLK; construct: gene MAP3K12; details: concentration: 1 μM, replicates: in singlicate; n = 1
%Inh listing for selected molecules.
Report the value in % with no unit label.

>>> print(df.to_string())
                                   molecule  quantity_unit  observed_value
0  CN(c1ccc2c(c1)nc(NCc1ccccc1)n2C)c1ccnc(Nc2ccc(CS(C)(=O)=O)cc2)n1.Cl [GW811603]              %              14

Would you kindly look at the next entry?
Short answer on DLK for Cc1nn2c(=O)cc(N3CCO[C@H](C)C3)nc2n1Cc1cccc(Cl)c1Cl [GSK2373693] , %Inh: 0

----------
tested on: IRAK3; conditions: concentration: 1 μM, replicates: in singlicate; n = 1
%Inh listing for selected compounds.
Report the value in % with no unit label.

Solved entries:
                                   compound  quantity_unit  observed_value
0  Cl.O=C(Nc1ccc(Oc2ccc3[nH]c(NC(=O)c4ccco4)nc3c2)cc1)Nc1cc(C(F)(F)F)ccc1F [GW683134]              %               0
1  Cn1cc(-c2cnc(N)c3c(-c4ccc5c(c4)CCN5C(=O)Cc4ccccc4)csc23)cn1 [GSK2593074]              %               5
2  CN(C)CCOc1ccc(-c2cc(-c3ccc(Cl)c(O)c3)c(-c3ccncc3)[nH]2)cc1.Cl.Cl [SB-684387]              %               0
3  Cc1ccc(C)c(NC(=O)Nc2ccc(C)c(-c3ccc(C(=O)Nc4ccncc4)cc3)c2)c1 [GSK1398473]              %               1
4  COc1cccc(NC(=O)NCCNc2ccnc(Nc3ccc(F)cc3)n2)c1 [GSK1379879]              %              14

The measured %Inh associated with Nc1ncnc2scc(-c3ccc(NC(=O)Cc4cc(F)ccc4F)cc3)c12.O=C(O)C(F)(F)F [SB-731254-M] reads 16
